Values from ChEMBL document CHEMBL1240330

# target-desc: Splicing factor 3B subunit 3 (Homo sapiens, UniProt Q15393)
# Sequence (Q15393 whole entry): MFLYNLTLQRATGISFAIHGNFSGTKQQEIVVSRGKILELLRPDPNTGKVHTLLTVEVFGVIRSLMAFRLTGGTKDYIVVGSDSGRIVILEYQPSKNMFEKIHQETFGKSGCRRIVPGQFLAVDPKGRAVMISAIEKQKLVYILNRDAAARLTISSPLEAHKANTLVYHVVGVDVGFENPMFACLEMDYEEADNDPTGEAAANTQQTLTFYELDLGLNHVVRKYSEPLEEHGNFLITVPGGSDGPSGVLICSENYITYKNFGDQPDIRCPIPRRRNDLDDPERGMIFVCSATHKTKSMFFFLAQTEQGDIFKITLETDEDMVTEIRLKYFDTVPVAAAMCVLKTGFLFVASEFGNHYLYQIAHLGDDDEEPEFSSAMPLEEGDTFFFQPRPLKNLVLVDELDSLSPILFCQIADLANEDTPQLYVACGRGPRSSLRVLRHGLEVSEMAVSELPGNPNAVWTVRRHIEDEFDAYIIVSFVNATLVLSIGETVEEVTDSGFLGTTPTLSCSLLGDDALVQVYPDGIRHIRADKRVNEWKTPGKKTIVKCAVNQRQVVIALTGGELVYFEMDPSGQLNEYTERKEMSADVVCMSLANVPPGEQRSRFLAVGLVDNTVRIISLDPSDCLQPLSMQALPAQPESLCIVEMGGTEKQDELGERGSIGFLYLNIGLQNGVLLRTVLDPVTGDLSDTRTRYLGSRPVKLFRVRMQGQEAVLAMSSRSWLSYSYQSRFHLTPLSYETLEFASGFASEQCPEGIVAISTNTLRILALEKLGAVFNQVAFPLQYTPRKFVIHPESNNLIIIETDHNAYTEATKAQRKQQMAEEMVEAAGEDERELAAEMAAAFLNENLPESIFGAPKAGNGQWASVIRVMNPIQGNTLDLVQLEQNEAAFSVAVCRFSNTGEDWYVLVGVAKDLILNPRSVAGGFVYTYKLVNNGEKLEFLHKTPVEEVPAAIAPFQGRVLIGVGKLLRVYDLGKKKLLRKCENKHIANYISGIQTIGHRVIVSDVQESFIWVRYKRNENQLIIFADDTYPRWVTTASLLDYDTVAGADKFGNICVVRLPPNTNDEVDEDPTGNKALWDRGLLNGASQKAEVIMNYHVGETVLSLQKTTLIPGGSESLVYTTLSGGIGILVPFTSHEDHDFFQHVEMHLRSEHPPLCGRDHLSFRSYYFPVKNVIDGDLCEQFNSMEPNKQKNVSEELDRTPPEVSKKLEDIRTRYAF
# measurement-description: Inhibition of SAP130 in VEGF-stimulated human U251 cells by PLAP reporter gene assay
readout: IC50 (µM)
# unit: µM | format: bare number

Query string: Param item = "CC(/C=C/C(=O)NO)=C\[C@@H](C)C(=O)c1ccc(N(C)C)cc1" ; retrieve measured IC50.
Result string: 0.611
